# system name: UniProtKB O43174
# Sequence (O43174 whole entry): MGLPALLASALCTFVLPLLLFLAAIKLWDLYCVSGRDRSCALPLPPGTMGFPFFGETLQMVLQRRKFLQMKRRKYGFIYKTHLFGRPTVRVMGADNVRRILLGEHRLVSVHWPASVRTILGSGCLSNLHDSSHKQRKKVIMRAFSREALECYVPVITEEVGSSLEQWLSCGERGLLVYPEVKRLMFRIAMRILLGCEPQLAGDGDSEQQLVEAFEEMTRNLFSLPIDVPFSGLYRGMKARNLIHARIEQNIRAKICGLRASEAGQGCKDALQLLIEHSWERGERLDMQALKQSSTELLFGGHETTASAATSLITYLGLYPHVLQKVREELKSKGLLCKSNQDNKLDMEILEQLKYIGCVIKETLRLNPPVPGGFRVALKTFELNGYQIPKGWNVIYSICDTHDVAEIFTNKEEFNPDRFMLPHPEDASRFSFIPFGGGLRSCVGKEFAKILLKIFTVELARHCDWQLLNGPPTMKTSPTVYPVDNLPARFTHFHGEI
# assay: Inhibition of CYP26A1 in human MCF7 cell microsomes using [3H]ATRA as substrate after 1 hr by scintillation counter analysis
# Set-up: species or system Microsome
measured endpoint: pIC50
Give only the number. pIC50 is defined as minus log10 of concentration in molar units.

Example cases with answers are listed next.
* CNC(=O)C(C)(C)C(c1ccc(Nc2ccccc2)cc1)n1cncn1 (centres undefined) | 6.00
* COC(=O)C(C)(C)C(c1ccc(Nc2ccc(C(C)=O)cc2)cc1)n1cncn1 (centres undefined) | 7.02

Now for a further compound.
Q: Fill in the blank: the reported pIC50 of COC(=O)C(C)(C)C(c1ccc(Nc2ccccc2)cc1)n1cncn1 (centres undefined) is ____.
Result: 7.89
